study.target: full-length beta-Catenin (Uniprot ID P35222) (Homo sapiens (Human)) (UniProt P35222)
Sequence (P35222 whole entry): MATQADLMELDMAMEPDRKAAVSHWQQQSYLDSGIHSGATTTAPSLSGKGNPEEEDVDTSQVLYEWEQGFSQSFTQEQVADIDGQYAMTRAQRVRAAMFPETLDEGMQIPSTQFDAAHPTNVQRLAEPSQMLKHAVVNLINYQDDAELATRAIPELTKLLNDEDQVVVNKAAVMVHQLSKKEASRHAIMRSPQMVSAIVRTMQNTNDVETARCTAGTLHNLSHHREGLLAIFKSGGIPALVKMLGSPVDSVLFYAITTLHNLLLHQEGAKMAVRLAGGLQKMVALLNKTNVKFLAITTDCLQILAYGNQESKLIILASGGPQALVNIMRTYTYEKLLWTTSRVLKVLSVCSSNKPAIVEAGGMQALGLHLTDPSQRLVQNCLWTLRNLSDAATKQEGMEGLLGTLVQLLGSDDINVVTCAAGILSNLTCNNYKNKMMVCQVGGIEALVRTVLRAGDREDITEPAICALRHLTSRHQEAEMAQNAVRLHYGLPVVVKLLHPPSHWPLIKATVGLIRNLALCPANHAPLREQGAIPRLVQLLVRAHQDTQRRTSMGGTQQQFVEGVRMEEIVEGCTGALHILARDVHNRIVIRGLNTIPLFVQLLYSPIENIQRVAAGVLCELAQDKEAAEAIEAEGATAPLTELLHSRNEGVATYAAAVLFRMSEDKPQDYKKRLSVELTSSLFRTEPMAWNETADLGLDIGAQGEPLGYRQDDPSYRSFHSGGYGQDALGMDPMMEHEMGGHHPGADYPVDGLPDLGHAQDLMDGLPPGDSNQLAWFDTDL
protocol.description: FP competition; full-length beta-catenin + 5FAM-TCF4(10-53) probe
pIC50: −log10 of the molar value. Starred links: 1 amine or outer side, 2 acyl side, 3 side chain; linkers in the order of their positions; H or OH if unused. Positions of bridges follow the written chain, without caps; N, C: chain ends. Non-standard residues stand in square brackets, D forms with d. Primed or numbered codes have the meaning given here. PyrS2″ = (S)-3-amino-1-((pent-4-en-1-yloxy)carbonyl)pyrrolidine-3-carboxylic acid (stapling residue), C=CCCCOC(=O)N1CC[C@@](N[*:1])(C(=O)[*:2])C1; B5(4) = 2,2-bis(4-pentenyl)glycine = 2-amino-2-(pent-4-en-1-yl)hept-6-enoic acid (stitching residue), C=CCCCC(CCCC=C)(N[*:1])C(=O)[*:2]; B5(5) = 2,2-bis(4-pentenyl)glycine, 2-amino-2-(pent-4-en-1-yl)hept-6-enoic acid (stitching residue), C=CCCCC(CCCC=C)(N[*:1])C(=O)[*:2]; Phe(3-COOH) = N[C@@H](Cc1cccc(C(=O)O)c1)C(=O)O; Phe(2-Cl) = N[C@@H](Cc1ccccc1Cl)C(=O)O; Bta = N[C@@H](Cc1csc2ccccc12)C(=O)O; αAllylPro = C=CC[C@@]1(C(=O)O)CCCN1; tBuAla = CC(C)(C)C[C@H](N)C(=O)O; 3Thi = N[C@@H](Cc1ccsc1)C(=O)O
Classify as follows. Reported pIC50 greater than or equal to 7: Yes. Reported pIC50 below: No.

Ac-[αAllylPro]D[tBuAla][B5(5)]D[Phe(3-COOH)]AAFA[PyrS2″][Phe(2-Cl)][Bta]A-NH2 (staple 1-4, 4-11) [I-2023]: Yes
Ac-[αAllylPro]D[tBuAla][B5(4)]NTAAYN[PyrS2″][3Thi][Bta]Q-NH2 (staple 1-4, 4-11; not fully specified; printed as Ac-PL3-Asp-Npg-B5-Asn-Thr-Ala-Ala-Tyr-Asn-PyrS2-3Thi-BztA-Gln-NH2) [I-2015]: No
Ac-[αAllylPro]D[tBuAla][B5(5)]D[Phe(3-COOH)]AAFA[PyrS2″][Phe(2-Cl)][Bta][dA]-NH2 (staple 1-4, 4-11) [I-2026]: Yes

Could you tell me if the measured pIC50 of Ac-[αAllylPro]D[tBuAla][B5(5)]D[Phe(3-COOH)]AAFS[PyrS2″][Phe(2-Cl)][Bta]V-NH2 (staple 1-4, 4-11) [I-2028] reaches 7 or more? Yes

Another binder to check: Ac-[αAllylPro]D[tBuAla][B5(5)]D[Phe(3-COOH)]AAFN[PyrS2″][Phe(2-Cl)][Bta]V-NH2 (staple 1-4, 4-11) [I-2032] Yes

Another binder to check: Ac-[αAllylPro]D[tBuAla][B5(5)]D[Phe(3-COOH)]AAFS[PyrS2″][Phe(2-Cl)][Bta]F-NH2 (staple 1-4, 4-11) [I-2029] Yes

Another binder to check: Ac-[αAllylPro]D[tBuAla][B5(4)]NTAAYN[PyrS2″][3Thi][Bta]Q-NH2 (staple 1-4, 4-11; not fully specified; printed as Ac-PL3-Asp-Npg-B5-Asn-Thr-Ala-Ala-Tyr-Asn-PyrS2-3Thi-BztA-Gln-NH2) [I-2016] No
